biological target: Ephrin type-A receptor 7 (Homo sapiens) (UniProt Q15375); conditions: at 1 µM
Sequence (Q15375 28-998 limits assumed): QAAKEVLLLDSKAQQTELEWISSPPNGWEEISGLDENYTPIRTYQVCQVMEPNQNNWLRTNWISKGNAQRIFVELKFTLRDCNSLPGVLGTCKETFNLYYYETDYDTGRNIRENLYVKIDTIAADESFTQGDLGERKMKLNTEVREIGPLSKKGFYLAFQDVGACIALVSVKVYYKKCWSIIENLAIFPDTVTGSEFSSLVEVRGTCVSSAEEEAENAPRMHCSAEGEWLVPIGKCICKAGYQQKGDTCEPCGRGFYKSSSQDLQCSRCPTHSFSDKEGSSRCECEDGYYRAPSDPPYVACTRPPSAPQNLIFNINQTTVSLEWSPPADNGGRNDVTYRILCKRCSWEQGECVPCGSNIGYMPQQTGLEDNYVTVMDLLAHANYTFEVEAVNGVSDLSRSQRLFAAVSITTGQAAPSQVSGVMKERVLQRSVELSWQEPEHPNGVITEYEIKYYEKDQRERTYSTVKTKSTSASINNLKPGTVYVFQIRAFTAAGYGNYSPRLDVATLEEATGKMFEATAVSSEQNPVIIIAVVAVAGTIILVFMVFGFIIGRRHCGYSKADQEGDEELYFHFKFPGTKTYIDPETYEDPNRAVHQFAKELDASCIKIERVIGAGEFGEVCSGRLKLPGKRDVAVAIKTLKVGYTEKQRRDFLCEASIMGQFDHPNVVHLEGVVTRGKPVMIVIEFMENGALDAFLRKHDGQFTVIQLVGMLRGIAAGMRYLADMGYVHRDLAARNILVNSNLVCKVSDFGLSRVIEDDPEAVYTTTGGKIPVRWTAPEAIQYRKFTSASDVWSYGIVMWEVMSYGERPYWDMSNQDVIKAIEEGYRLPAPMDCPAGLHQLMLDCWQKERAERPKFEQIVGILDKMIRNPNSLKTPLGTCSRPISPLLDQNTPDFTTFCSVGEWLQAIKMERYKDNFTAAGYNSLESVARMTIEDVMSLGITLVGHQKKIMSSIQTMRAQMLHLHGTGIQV
parameter_measured: residual activity (%)

| item_smiles | system_name | parameter_measured | unit_abbreviation | measured_value |
| --- | --- | --- | --- | --- |
| O=C1NC(=O)c2c1c1c3ccccc3[nH]c1c1[nH]c3cc(Br)ccc3c21 | Ephrin type-A receptor 7 (Homo sapiens) (UniProt Q15375) | residual activity | % | 99 |
| COc1cc2ncnc(Nc3ccc(NC(=O)c4ccccc4)cc3)c2cc1OC | Ephrin type-A receptor 7 (Homo sapiens) (UniProt Q15375) | residual activity | % | 92 |
| N#C/C(=C(\N)Sc1ccc(N)cc1)c1ccccc1C(F)(F)F | Ephrin type-A receptor 7 (Homo sapiens) (UniProt Q15375) | residual activity | % | 99 |
| Cc1nc(-c2ccccc2)c(-c2ccncc2)o1 | Ephrin type-A receptor 7 (Homo sapiens) (UniProt Q15375) | residual activity | % | 94 |
| CC(=O)c1ccc(N2CCOCC2)cc1O | Ephrin type-A receptor 7 (Homo sapiens) (UniProt Q15375) | residual activity | % | 101 |
| O=C(O)c1ccc2c3c1cccc3c(=O)n1c3ccccc3nc21 | Ephrin type-A receptor 7 (Homo sapiens) (UniProt Q15375) | residual activity | % | 104 |
| Cn1nc2c3c(cccc31)C(=O)c1ccccc1-2 | Ephrin type-A receptor 7 (Homo sapiens) (UniProt Q15375) | residual activity | % | 95 |
| CCOc1cc2ncnc(Nc3cccc(Br)c3)c2cc1OCC | Ephrin type-A receptor 7 (Homo sapiens) (UniProt Q15375) | residual activity | % | 48 |
| NC(=O)c1ccc2[nH]c(-c3ccc(Oc4ccc(Cl)cc4)cc3)nc2c1 | Ephrin type-A receptor 7 (Homo sapiens) (UniProt Q15375) | residual activity | % | 94 |
| COc1ccc(CNc2nc(N(CCO)CCO)nc3c2ncn3C(C)C)cc1 | Ephrin type-A receptor 7 (Homo sapiens) (UniProt Q15375) | residual activity | % | 92 |
| Cc1cccc(-c2[nH]c(C(C)(C)C)nc2-c2ccc3c(c2)OCO3)n1 | Ephrin type-A receptor 7 (Homo sapiens) (UniProt Q15375) | residual activity | % | 98 |
| COc1cc2ncnc(N3CCN(C(=O)Nc4ccc(Oc5ccccc5)cc4)CC3)c2cc1OC | Ephrin type-A receptor 7 (Homo sapiens) (UniProt Q15375) | residual activity | % | 95 |
| c1ccc(-c2n[nH]cc2-c2ccnc3ccccc23)nc1 | Ephrin type-A receptor 7 (Homo sapiens) (UniProt Q15375) | residual activity | % | 94 |
| Cc1cc2ncc(-c3ccccc3)nc2cc1C | Ephrin type-A receptor 7 (Homo sapiens) (UniProt Q15375) | residual activity | % | 99 |
| CCN(CC)C(=O)c1ccc(Nc2nc(OCC3CCCCC3)c3nc[nH]c3n2)cc1 | Ephrin type-A receptor 7 (Homo sapiens) (UniProt Q15375) | residual activity | % | 71 |
| CCC(=O)Nc1ccc2ncnc(Nc3cccc(Br)c3)c2c1 | Ephrin type-A receptor 7 (Homo sapiens) (UniProt Q15375) | residual activity | % | 92 |
| CC#CC(=O)Nc1cc2c(Nc3ccc(F)c(Cl)c3)ncnc2cn1 | Ephrin type-A receptor 7 (Homo sapiens) (UniProt Q15375) | residual activity | % | 96 |
| Nc1nc(Nc2ccc(S(N)(=O)=O)cc2)nn1C(=S)Nc1c(F)cccc1F | Ephrin type-A receptor 7 (Homo sapiens) (UniProt Q15375) | residual activity | % | 3 |
